B1: CLCN6 (parent)
chain: VGEIVGIITRHNLTYEFLQARLRQ

# Variants of: B1
# assay method text: protein stability index of a GFP-peptide fusion (GPS, HEK-293T) (PSI 1-6); higher = more stable;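 note: lentivirally expressed fusions sorted by FACS into six bins by GFP to DsRed ratio, PSI derived from sequencing read proportions per bin multiplied by bin number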
# condition context: c terminus: a fixed tail appended

mutant designation: L13M
protein stability index: 1.86

mutant designation: Q19I
protein stability index: 3.35

mutant designation: V1M
protein stability index: 2.29

mutant designation: V1Q
protein stability index: 2.08

mutant designation: F17E
protein stability index: 2.01

mutant designation: L22V
protein stability index: 3.2

mutant designation: Y15G
protein stability index: 1.65

mutant designation: E3W
protein stability index: 2.42

mutant designation: H11V
protein stability index: 2.32

mutant designation: L22E
protein stability index: 1.04

mutant designation: G2H
protein stability index: 2.81

mutant designation: L22S
protein stability index: 2.58

mutant designation: L22H
protein stability index: 1.93

mutant designation: R21D
protein stability index: 2.76

mutant designation: L18F
protein stability index: 2.71

mutant designation: G2V
protein stability index: 2.66

mutant designation: L18S
protein stability index: 1.02

mutant designation: T14L
protein stability index: 2.29

mutant designation: L22D
protein stability index: 1.51

mutant designation: I7K
protein stability index: 1.7

mutant designation: Q24V
protein stability index: 2.87

mutant designation: N12A
protein stability index: 5

mutant designation: E3P
protein stability index: 3.11

mutant designation: I8C
protein stability index: 1.16

mutant designation: N12I
protein stability index: 1.15

mutant designation: H11D
protein stability index: 2.48

mutant designation: V1F
protein stability index: 2.41

mutant designation: F17T
protein stability index: 1.87

mutant designation: T9L
protein stability index: 1.89

mutant designation: Y15V
protein stability index: 1.63

mutant designation: L13G
protein stability index: 1.7

mutant designation: I8S
protein stability index: 2.65

mutant designation: L13N
protein stability index: 1.08

mutant designation: L18E
protein stability index: 3.96

mutant designation: I8Q
protein stability index: 2.47

mutant designation: Y15R
protein stability index: 4.35

mutant designation: G2K
protein stability index: 2.53

mutant designation: I8R
protein stability index: 2.64

mutant designation: L13A
protein stability index: 1.63

mutant designation: L13C
protein stability index: 2.08

mutant designation: H11G
protein stability index: 1.76

mutant designation: V1Y
protein stability index: 2.83
